Ref: ChEMBL document CHEMBL5260827

Test: Inhibition of rat FBPase
assay.readout: IC50 (µM)
Quick note: give the figure in µM, leave out the unit.

q: Could you tell me which IC50 is on file for CC(C)(C)C(=O)c1sc(N)nc1-c1ccc(P(=O)(O)O)o1 ?
a: 0.189

---

Molecular target: Fructose-1,6-bisphosphatase 1 (Homo sapiens)
Test: biochemical
assay.readout: IC50
Report the figure along with its unit, number first.

q: Which value of IC50 has been reported for CSc1nc(N)c2nc(-c3ccc(P(=O)(O)O)o3)n(CC(C)C)c2n1 in the records?
a: 700 µM

---

Test: Oral bioavailability in cynomolgus monkey at 10 mg/kg
Format: ADME, organism-based, Macaca fascicularis
Settings: in vivo
assay.readout: bioavailability (%)
Report as a plain number; the unit % is understood.

q: Reported bioavailability for CC(C)(C)C(=O)c1sc(N)nc1-c1ccc(P(=O)(O)O)o1 : what is it?
a: 52

---

Could you please report measured pIC50 for the items listed next?
Biological target: Fructose-1,6-bisphosphatase 1 (Homo sapiens, UniProt P09467)
Assay: Inhibition of human liver FBPase by spectrophotometric method
Type: tissue-based
// field semantics: pIC50 = negative decimal log of concentration (mol/L)

q: Need pIC50, item CCCC(C)C(=O)c1sc(N)nc1-c1ccc(P(=O)(O)O)o1 (configuration not stated)
a: 7.96

q: Value lookup for pIC50; key = O=P(O)(O)OC[C@H]1O[C@H](COP(=O)(O)O)[C@@H](O)[C@@H]1O
a: 5.70

q: Entry CC(C)Cn1c(C2CCC(P(=O)(O)O)O2)nc2c(N)c(F)cc(CCBr)c21 (configuration not stated) : reported pIC50 = ?
a: 7.47

q: Which pIC50 value is on record for CC1SC(=O)NN=C1c1ccc2[nH]c(-c3ccc(-n4ccnc4)cc3)nc2c1 (configuration not stated) ?
a: 4.44

q: Item under review: CSc1nc(N)c2nc(-c3ccc(P(=O)(O)O)o3)n(CC(C)(C)C)c2n1 . Reported pIC50?
a: 6.15

q: Name the reported pIC50 value associated with the molecule N#Cc1ccc(C(C(=O)NCCc2ccc(O)cc2)N2C(=O)C3Cc4ccc(O)cc4CN3C(=O)C2CC2CCCCC2)cc1 (configuration not stated)
a: 6.43

q: State the recorded pIC50 for this entry: CC1=CC=CN2C(CC(C)C)C(c3ccc(P(=O)(O)O)o3)=NC12 (configuration not stated)
a: 5.80

---

Target: Fructose-1,6-bisphosphatase 1 (Homo sapiens, UniProt P09467)
Sequence (P09467 whole entry): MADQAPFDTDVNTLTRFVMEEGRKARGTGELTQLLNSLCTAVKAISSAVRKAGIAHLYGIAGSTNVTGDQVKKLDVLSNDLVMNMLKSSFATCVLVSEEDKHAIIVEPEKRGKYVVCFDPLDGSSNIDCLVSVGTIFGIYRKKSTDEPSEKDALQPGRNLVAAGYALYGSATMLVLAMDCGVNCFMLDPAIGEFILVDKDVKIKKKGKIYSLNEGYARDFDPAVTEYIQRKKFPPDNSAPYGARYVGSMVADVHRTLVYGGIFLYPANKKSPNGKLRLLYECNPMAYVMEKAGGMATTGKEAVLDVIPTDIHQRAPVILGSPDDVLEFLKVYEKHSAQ
Experiment: Inhibition of human liver FBPase expressed in Escherichia coli BL21 (DE3) measured after 48 hrs by spectrophotometry analysis
assay.readout: IC50 (nM)
Express the result in nM but write the number alone.

q: Requested read-out: IC50. Entry: COC(=O)c1ccc(S(=O)(=O)n2cccc2)cc1
a: 32
